Where do the numbers come from? From PubChem BioAssay AID504841.

- target or test system: ATP-dependent DNA helicase Q1 (Homo sapiens) (UniProt P46063)
- Sequence (P46063 whole entry, looked up): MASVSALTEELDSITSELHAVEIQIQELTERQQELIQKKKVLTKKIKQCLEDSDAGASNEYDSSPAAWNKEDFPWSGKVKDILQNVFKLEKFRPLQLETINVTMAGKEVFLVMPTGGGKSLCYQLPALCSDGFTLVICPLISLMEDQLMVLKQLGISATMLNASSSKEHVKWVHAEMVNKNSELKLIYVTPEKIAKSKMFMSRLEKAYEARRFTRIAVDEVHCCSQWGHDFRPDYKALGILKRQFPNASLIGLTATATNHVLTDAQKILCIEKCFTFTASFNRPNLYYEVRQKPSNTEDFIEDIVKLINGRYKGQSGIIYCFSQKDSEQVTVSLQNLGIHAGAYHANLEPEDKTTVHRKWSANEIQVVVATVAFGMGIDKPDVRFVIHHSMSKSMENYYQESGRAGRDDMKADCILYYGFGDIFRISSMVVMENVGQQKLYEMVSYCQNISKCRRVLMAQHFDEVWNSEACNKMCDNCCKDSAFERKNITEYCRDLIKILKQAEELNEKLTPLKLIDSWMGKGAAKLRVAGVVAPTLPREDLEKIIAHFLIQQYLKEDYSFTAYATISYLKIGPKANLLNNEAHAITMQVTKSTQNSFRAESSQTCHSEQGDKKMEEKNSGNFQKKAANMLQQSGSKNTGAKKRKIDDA
- experimental details: Confirmation qHTS Assay for Inhibitors of RecQ-Like Dna Helicase 1 (RECQ1) - Round 2 Cherry Picks; further: on the % scale 0 is the no-effect control and ±100 the full control effect; nearly all actives have a fitted effect of over 50% in size
- measurement conditions: recombinant RECQ1 DNA unwinding, red fluorescence; series mostly up to 119 µM
- Procedure: Survival of cells and the faithful propagation of the genome depend on elaborate mechanisms of detecting and repairing DNA damage. […] The validation assay was a fluorescence quenching based kinetic qHTS for RECQ1 Helicase DNA unwinding. The activity was measured as ATP-dependent separation of a 20-bp DNA duplex extended by 30-nt single-stranded tails (forked duplex). […] Strand separation results in an increase in the fluorescence of TAMRA (excitation 525 nm, emission 598 nm). […]
The whole screen tested about 1,100 compounds, of which about 160 (15%) were called active. Roughly 36% stayed inconclusive and do not appear here. The call rests on the fitted dose curve; in most records, active means well fitted inhibition curve with a large enough effect; inconclusive means small, poorly fitted or top-dose-only effect; inactive means no such curve, though single readings can be large or run the other way. Not all results are given here.
Parameter call: string, one of label 1 for active, label 0 for inactive

>  <compound>
COc1ccc(Cl)cc1C(=O)NNC(=S)NC(=O)/C=C/c1ccco1

>  <label class>
label 0

$$$$
>  <compound>
O=C(NCCN1C(=O)S/C(=C\c2cccnc2)C1=O)c1ccc(S(=O)(=O)N2CCCC2)cc1

>  <label class>
label 0

$$$$
>  <compound>
COC(C(=O)Nc1ccc(S(=O)(=O)Nc2ccc(C)c(C)c2)cc1)c1ccccc1 (stereo unspecified)

>  <label class>
label 0

$$$$
>  <compound>
COc1cc(C(=O)NCc2nnc(SCC(=O)Nc3nc4ccc(C)cc4s3)o2)cc(OC)c1OC

>  <label class>
label 0

$$$$
>  <compound>
CCCCOC(=O)c1ccc(NC(c2ccc(C)cc2)P(=O)(OC)OC)cc1 (stereo unspecified)

>  <label class>
label 0

$$$$

Entry CN1C(=O)/C(=C/c2ccco2)SC1=Nc1cccc(C(=O)O)c1 : call = ? label 0

Entry Cc1cccc(-n2nc3c(c2NC(=O)c2ccc(Br)o2)CSC3)c1C : call = ? label 0
